- Test system: ragweed (common ragweed, Ambrosia elatior)
- EXPERIMENT_NOTES: Test B pre-/postemergence plant response
- Type: in vivo
- MEASUREMENT_SETUP: Postemergence, 125 g ai/ha; scale 0 to 100 (0 no effect, 100 complete control)
REPORTED_METRIC: Plant response rating, Ragweed
Give bare numbers.

O=C1CCCC(O)=C1C(=O)c1cnc(-c2ccccc2)n(C2CCOCC2)c1=O :: 95

Can you give me Plant response rating, Ragweed for all of these, one by one?
1. O=C1CCCC(O)=C1C(=O)c1cnc(-c2ccccc2)n(C2CC[S+]([O-])CC2)c1=O (mixture of isomers)
2. CCCn1c(-c2cc(Cl)cc(Cl)c2)ncc(C(=O)C2=C(O)CCCC2=O)c1=O
3. O=C1CCCC(O)=C1C(=O)c1cnc(-c2ccccc2)n(C2CCCCCC2)c1=O

Completion:
[100, 90, 98]
